# Test system: Streptococcus pyogenes
# procedure.summary: In vitro antimicrobial activity against Streptococcus pyogenes C203
# Type: functional
reported.metric: MIC (µg/mL)
Number in µg/mL, nothing else.

The following molecules have reported results that may help.
smiles	MIC (µg/mL)
CC[C@H]1OC(=O)C[C@@H](O)[C@H](C)[C@@H](O[C@@H]2O[C@H](C)[C@@H](O)[C@H](N(C)C)[C@H]2O)[C@@H](CCN2C(=O)c3ccccc3C2=O)C[C@@H](C)C(=O)/C=C/C(C)=C/[C@@H]1CO	64
CC[C@H]1OC(=O)C[C@@H](O)[C@H](C)[C@@H](O[C@@H]2O[C@H](C)[C@@H](O[C@H]3C[C@@](C)(O)[C@@H](O)[C@H](C)O3)[C@H](N(C)C)[C@H]2O)[C@@H](CCN2CCCCCCC2)C[C@@H](C)C(=O)/C=C/C(C)=C/[C@@H]1CO[C@@H]1O[C@H](C)[C@@H](O)[C@@H](O)[C@H]1OC	2

Ask: Fill in: MIC of CC[C@H]1OC(=O)C[C@@H](O)[C@H](C)[C@@H](O[C@@H]2O[C@H](C)[C@@H](O)[C@H](N(C)C)[C@H]2O)[C@@H](CCO)C[C@@H](C)C(=O)/C=C/C(C)=C/[C@@H]1CO[C@@H]1O[C@H](C)[C@@H](O)[C@@H](O)[C@H]1OC is ___
Reply: 2

Ask: Data request, read-out MIC, for CC[C@H]1OC(=O)C[C@@H](O)[C@H](C)[C@@H](O[C@@H]2O[C@H](C)[C@@H](O)[C@H](N(C)C)[C@H]2O)[C@@H](CCOC)C[C@@H](C)C(=O)/C=C/C(C)=C/[C@@H]1CO[C@@H]1O[C@H](C)[C@@H](O)[C@@H](OC)[C@H]1OC
Reply: 0.5

Ask: Recorded MIC of CC[C@H]1OC(=O)C[C@@H](O)[C@H](C)[C@@H](O[C@@H]2O[C@H](C)[C@@H](O)[C@H](N(C)C)[C@H]2O)[C@@H](CCOc2ncnc3ccccc23)C[C@@H](C)C(=O)/C=C/C(C)=C/[C@@H]1CO[C@@H]1O[C@H](C)[C@@H](O)[C@@H](OC)[C@H]1OC , please.
Reply: 0.5

Ask: Which MIC value belongs to CC[C@H]1OC(=O)C[C@@H](O)[C@H](C)[C@@H](O[C@@H]2O[C@H](C)[C@@H](O[C@H]3C[C@@](C)(O)[C@@H](O)[C@H](C)O3)[C@H](N(C)C)[C@H]2O)[C@@H](C)C[C@@H](C)C(=O)/C=C/C(C)=C/[C@@H]1CO ?
Reply: 64

Ask: What does the record list as MIC for CC[C@H]1OC(=O)C[C@@H](O)[C@H](C)[C@@H](O[C@@H]2O[C@H](C)[C@@H](O)[C@H](N(C)C)[C@H]2O)[C@@H](CCS(=O)(=O)c2ccc(C)cc2)C[C@@H](C)C(=O)/C=C/C(C)=C/[C@@H]1CO[C@@H]1O[C@H](C)[C@@H](O)[C@@H](OC)[C@H]1OC ?
Reply: 1
